Target: human renal renin (Homo sapiens)
Sequence (P00797 67-406): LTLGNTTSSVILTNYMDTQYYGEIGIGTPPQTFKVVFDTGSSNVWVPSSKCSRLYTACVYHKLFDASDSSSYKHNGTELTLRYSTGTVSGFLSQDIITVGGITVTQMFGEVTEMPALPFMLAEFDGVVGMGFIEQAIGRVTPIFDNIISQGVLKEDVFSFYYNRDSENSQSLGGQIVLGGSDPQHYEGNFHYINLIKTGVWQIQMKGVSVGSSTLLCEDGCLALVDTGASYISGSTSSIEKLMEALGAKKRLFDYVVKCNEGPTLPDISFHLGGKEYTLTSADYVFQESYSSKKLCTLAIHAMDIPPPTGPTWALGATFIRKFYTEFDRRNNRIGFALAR
Quantity: pIC50
Give bare numbers, as −log10 of the molar value.

Recorded pIC50, per entry:
Enquiry: Would you kindly share the measured pIC50 for `Cc1ccc(S(=O)(=O)N[C@]2(Cc3ccccc3)CCCN([C@@H](Cc3c[nH]cn3)C(=O)N[C@@H](CC3CCCCC3)[C@@H](O)[C@@H](O)CC(C)C)C2=O)cc1` ?
Return: 8.85

Enquiry: # lookup: pIC50 of `CC(C)C[C@H](O)[C@H](O)[C@H](CC1CCCCC1)NC(=O)[C@H](Cc1cnc[nH]1)N1C[C@H](Cc2ccccc2)N(CC(C)C)C1=O`
Return: 6.82

Enquiry: pIC50 lookup needed for CCCCC(C(=O)N[C@@H](CC1CCCCC1)[C@@H](O)[C@@H](O)CC(C)C)N1CCCC(Cc2ccccc2)C1=O (mixture of isomers) [Example 56A] , thanks.
Return: 6.39

Enquiry: Data request, read-out pIC50, for CCCCC(C(=O)N[C@@H](CC1CCCCC1)[C@@H](O)[C@@H](O)CC(C)C)N1CCN(Cc2ccccc2)CC1 (stereo partly drawn) [Example 32A]
Return: 6.09

Enquiry: Give its pIC50 value. Item: CCN1CC(C(O)C(CC2CCCCC2)NC(=O)C(Cc2nccn2C(=O)OC(C)(C)C)N2CCN(S(=O)(=O)N3CCN(C)CC3)C(Cc3ccccc3)C2=O)OC1=O (stereo not drawn)
Return: 8.30

Continuing:
Enquiry: What value of measured pIC50 is listed for CC(C)C[C@H](O)[C@H](O)[C@H](CC1CCCCC1)NC(=O)C(Cc1cnc[nH]1)N1CCC[C@@](Cc2ccccc2)(NC(=O)OCc2ccccc2)C1=O (single isomer, unassigned) ?
Return: 8.85

* * *

Biological target: human renal renin (Homo sapiens)
Sequence (P00797 67-406): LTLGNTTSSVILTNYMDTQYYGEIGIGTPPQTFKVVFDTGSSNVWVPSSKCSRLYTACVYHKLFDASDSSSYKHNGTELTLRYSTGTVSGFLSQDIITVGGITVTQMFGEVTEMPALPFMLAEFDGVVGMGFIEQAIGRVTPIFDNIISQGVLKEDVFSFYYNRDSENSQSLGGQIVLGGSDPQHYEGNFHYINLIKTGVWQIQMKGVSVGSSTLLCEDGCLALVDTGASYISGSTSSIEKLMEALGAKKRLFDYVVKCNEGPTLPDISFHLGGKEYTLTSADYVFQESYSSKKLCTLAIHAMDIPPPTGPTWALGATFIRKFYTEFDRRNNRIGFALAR
Decision: IC50 beneath 200 nM gives Met; IC50 meeting or exceeding 200 nM gives Not met.

Completed entries (count: 3):
Enquiry: API: query returns whether the compound falls strictly under 200 nM in IC50. Query: CCCCC(C(=O)N[C@@H](CC1CCCCC1)[C@@H](O)[C@@H](O)CC(C)C)N1CCN(c2ncccn2)CC1 (some centres unmarked) [Example 12A]
Return: Not met

Enquiry: Bench note: check whether CCCCC(C(=O)N[C@@H](CC1CCCCC1)[C@@H](O)[C@@H](O)CC(C)C)N1CCN(C(=O)N2CCOCC2)[C@H](Cc2ccccc2)C1 (some centres unmarked) [Example 38A] shows IC50 below 200 nM
Return: Met

Enquiry: # TODO verify IC50 < 200 nM strictly for this compound: `CC(C)C[C@H](O)[C@H](O)[C@H](CC1CCCCC1)NC(=O)[C@H](Cc1c[nH]cn1)N1C[C@H](Cc2ccccc2)NC1=O`
Return: Not met

Turning to the following compound.
Enquiry: Does the reported IC50 of the following compound sit strictly below 200 nM? CC(C)C[C@H](O)[C@H](O)[C@H](CC1CCCCC1)NC(=O)C(Cc1cscn1)N1CCN(C(=O)N2CCOCC2)[C@H](Cc2ccccc2)C1=O (some centres unmarked) [Example 49B]
Return: Met

* * *

Biological target: UniProtKB P00797
Sequence (P00797 67-406): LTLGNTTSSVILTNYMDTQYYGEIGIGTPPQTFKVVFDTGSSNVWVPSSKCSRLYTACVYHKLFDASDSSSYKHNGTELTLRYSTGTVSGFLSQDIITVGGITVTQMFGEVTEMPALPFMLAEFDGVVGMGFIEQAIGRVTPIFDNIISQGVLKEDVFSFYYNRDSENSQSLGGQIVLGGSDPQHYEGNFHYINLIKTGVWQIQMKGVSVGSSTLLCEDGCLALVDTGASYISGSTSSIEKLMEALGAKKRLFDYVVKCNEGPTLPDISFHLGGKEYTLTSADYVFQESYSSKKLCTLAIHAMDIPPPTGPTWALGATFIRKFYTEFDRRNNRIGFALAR
Quantity: IC50 (nM)
Numbers only, in nM.

Consider the reported IC50 for these compounds:
Enquiry: Any idea what IC50 was measured for CCCCNC(=O)[C@H](C[C@H](O)[C@H](CC1CCCCC1)NC(=O)C(Cc1cscn1)N1CCN(S(=O)(=O)c2ccc(C)cc2)[C@H](Cc2ccccc2)C1=O)C(C)C (stereo partly shown) ?
Return: 0.73

Enquiry: Form field: reported IC50 of CC(C)C[C@H](O)[C@H](O)[C@H](CC1CCCCC1)NC(=O)C(Cc1cnc[nH]1)N1CCC(Cc2ccccc2)(NC(=O)OCc2ccccc2)C1=O (single isomer, unassigned) [Example 63B]
Return: 15

I would be grateful if you could provide IC50 for each of the following entries.
1. Cc1ccc(S(=O)(=O)N2CCN(C(Cc3cscn3)C(=O)N[C@@H](CC3CCCCC3)[C@@H](O)[C@@H](O)CC(C)C)C(=O)[C@H]2Cc2ccccc2)cc1 (stereo partly shown)
2. Cc1ccc(S(=O)(=O)N2CCN(C(Cc3cscn3)C(=O)N[C@@H](CC3CCCCC3)[C@@H](O)[C@@H]3C[C@H](C)CO3)C(=O)[C@H]2Cc2ccccc2)cc1 (stereo partly shown)

Return:
1. 3
2. 3.4

* * *

Target: human renal renin (Homo sapiens, UniProt P00797)
Sequence (P00797 67-406): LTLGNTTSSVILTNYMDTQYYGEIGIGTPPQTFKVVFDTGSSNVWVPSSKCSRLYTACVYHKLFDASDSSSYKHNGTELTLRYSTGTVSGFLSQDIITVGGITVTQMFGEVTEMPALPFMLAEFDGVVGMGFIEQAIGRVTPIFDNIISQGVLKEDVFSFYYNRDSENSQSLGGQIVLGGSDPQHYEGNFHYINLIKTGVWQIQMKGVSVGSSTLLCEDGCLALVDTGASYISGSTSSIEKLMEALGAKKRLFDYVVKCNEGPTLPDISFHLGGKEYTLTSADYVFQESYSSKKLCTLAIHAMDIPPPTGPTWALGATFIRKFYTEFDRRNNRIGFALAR
Consider the following compounds; for each one, report its pIC50.
One number for each entry, as −log10 of the molar value.

Enquiry: # get_value(readout= pIC50, system= human renal renin (Homo sapiens, UniProt P00797)) for CCCCC(C(=O)N[C@@H](CC1CCCCC1)[C@@H](O)[C@@H](O)CC(C)C)N1CCN(C(=O)N(C)C)[C@H](Cc2ccccc2)C1 (stereo partly shown) [Example 35A]
Return: 7.04

Enquiry: // fetch human renal renin (Homo sapiens, UniProt P00797) pIC50 for CC1COC(C(O)C(CC2CCCCC2)NC(=O)C(Cc2cscn2)N2CCCC(Cc3ccccc3)(NS(=O)(=O)N3CCN(C)CC3)C2=O)C1 (stereo not shown)
Return: 9.26

Enquiry: Query for human renal renin (Homo sapiens, UniProt P00797): what pIC50 does the record show for `CCCC[C@@H](C(=O)N[C@@H](CC1CCCCC1)[C@@H](O)[C@@H](O)CC(C)C)N1CCCN(C(=O)OC(C)(C)C)[C@H](Cc2ccccc2)C1=O` ?
Return: 6.47

Enquiry: API: value(readout=pIC50, system=human renal renin (Homo sapiens, UniProt P00797)) for record CCCCC(C(=O)N[C@@H](CC1CCCCC1)[C@@H](O)[C@@H](O)CC(C)C)N1CCN(C(=O)OC(C)(C)C)[C@@H](Cc2ccccc2)C1 (stereo partly shown) [Example 34A]
Return: 7.00

For each of the compounds below, state pIC50.
1. CCN1C[C@@H]([C@H](O)[C@H](CC2CCCCC2)NC(=O)C(Cc2ncc[nH]2)N2CCN(S(=O)(=O)N3CCN(C)CC3)[C@H](Cc3ccccc3)C2=O)OC1=O (stereo partly shown)
2. CCCC[C@@H](C(=O)N[C@@H](CC1CCCCC1)[C@@H](O)[C@@H](O)CC(C)C)N1CCN(C(=O)OC(C)(C)C)[C@H](Cc2ccccc2)C1=O
3. CCCCNC(=O)[C@H](C[C@H](O)[C@H](CC1CCCCC1)NC(=O)C(Cc1cscn1)N1CCN(S(=O)(=O)N2CCN(C)CC2)[C@H](Cc2ccccc2)C1=O)C(C)C (stereo partly shown)
4. CCCCC(C(=O)N[C@@H](CC1CCCCC1)[C@@H](O)[C@@H](O)CC(C)C)N1CCC(Cc2ccccc2)CC1 (stereo partly shown)
5. CC(C)C[C@H](O)[C@H](O)[C@H](CC1CCCCC1)NC(=O)C(Cc1cnc[nH]1)N1CCC(Cc2ccccc2)(NC(=O)OCc2ccccc2)C1=O (single isomer, unassigned) [Example 63C]
6. CCCCC(C(=O)N[C@@H](CC1CCCCC1)[C@@H](O)[C@@H](O)CC(C)C)N1CCCC(Cc2ccccc2)C1 (stereo partly shown) [Example 18]
7. CCCC[C@@H](C(=O)OC)N(CC(=O)OCc1ccccc1)C[C@@H](Cc1ccccc1)NC(=O)OCc1ccccc1
8. CC(C)C[C@H](O)[C@H](O)[C@H](CC1CCCCC1)NC(=O)C(Cc1cnc[nH]1)N1CCC[C@](Cc2ccccc2)(NC(=O)OCc2ccccc2)C1=O (single isomer, unassigned)

Return:
8.77
7.82
8.82
6.37
8.35
6.04
6.52
7.55

Quick one: give me pIC50 for each item below, same order please.
1. CCCCC(C(=O)N[C@@H](CC1CCCCC1)[C@@H](O)[C@@H](O)CC(C)C)N1CCCC(Cc2ccccc2)C1 (stereo partly shown) [Example 20]
2. CCCC[C@H](NC[C@@H](Cc1ccccc1)NC(=O)OCc1ccccc1)C(=O)OC
3. CC(C)C[C@H](O)[C@H](O)[C@H](CC1CCCCC1)NC(=O)C(Cc1ncc[nH]1)N1CCN(S(=O)(=O)N2CCN(C)CC2)[C@H](Cc2ccccc2)C1=O (stereo partly shown)

Return:
6.62
7.21
8.77
